meta.source: patent US5539119A

What follows is a collection of Ki values obtained with κ opioid receptor (Cavia porcellus).
Sequence (P41144 whole entry): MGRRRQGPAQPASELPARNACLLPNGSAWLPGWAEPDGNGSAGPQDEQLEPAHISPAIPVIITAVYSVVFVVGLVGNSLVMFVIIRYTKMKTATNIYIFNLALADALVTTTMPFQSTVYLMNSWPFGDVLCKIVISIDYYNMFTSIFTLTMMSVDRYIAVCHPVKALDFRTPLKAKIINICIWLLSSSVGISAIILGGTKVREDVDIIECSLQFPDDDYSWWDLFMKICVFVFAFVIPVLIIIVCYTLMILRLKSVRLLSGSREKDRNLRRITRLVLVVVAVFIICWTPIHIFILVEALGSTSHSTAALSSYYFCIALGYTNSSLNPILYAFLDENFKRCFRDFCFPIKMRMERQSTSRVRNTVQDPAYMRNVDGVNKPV

# annotated cases, reported Ki shown
compound: CN1CC[C@]2(c3cccc(O)c3)Cc3[nH]c4ccc(Cl)cc4c3C[C@H]2C1 (relative stereo)
study.target: κ opioid receptor (Cavia porcellus)
Ki: > 27400 nM
//
compound: Oc1cccc([C@]23CCN(CC4CC4)C[C@@H]2Cc2c([nH]c4ccccc24)C3)c1 (relative stereo) [Compound 19]
study.target: κ opioid receptor (Cavia porcellus)
Ki: 951 nM
//
compound: CN1CC[C@]2(c3cccc(O)c3)Cc3[nH]c4ccccc4c3C[C@@]2(O)C1 (relative stereo)
study.target: κ opioid receptor (Cavia porcellus)
Ki: 662 nM

Need Ki of CN1CC[C@]2(c3cccc(O)c3)Cc3[nH]c4c(F)cccc4c3C[C@H]2C1 (relative stereo) , thanks.
> 6750 nM
